Tested on: CCRF-CEM
TEST_DETAILS: Antiviral activity against site directed 4X AZT resistant isolate HIV-1 in CEM cells
Type: functional, cell-based, Homo sapiens
CONDITION: ccrf-cem
RECORDED_ENDPOINT: pIC50
Please express pIC50 as -log10 of the molar concentration.

Record lookup: for CCRF-CEM, what pIC50 belongs to Cc1cn([C@H]2C[C@H](N=[N+]=[N-])[C@@H](CO)O2)c(=O)[nH]c1=O ?
7.09

====

TEST_DETAILS: Antiviral activity against subtype isolate G strain in PBLs (peripheral blood lymphocytes)
Format: functional, cell-based
CONDITION: Homo sapiens
Please respond with reported pIC50 for every item in the list.
Please express pIC50 as -log10 of the molar concentration.

Which pIC50 is reported for this molecule? COC(=O)CCCC=C(c1cc(Cl)c(OC)c(C(=O)OC)c1)c1cc(Cl)c(OC)c(C(=O)OC)c1
6.22

Which pIC50 is reported for this molecule? Cc1cn([C@H]2C[C@H](N=[N+]=[N-])[C@@H](CO)O2)c(=O)[nH]c1=O
8.70

Which pIC50 is reported for this molecule? CCOC(=O)CCCC=C(c1cc(Br)c(OC)c(C(=O)OC)c1)c1cc(Br)c(OC)c(C(=O)OC)c1
6.40

Which pIC50 is reported for this molecule? CCOC(=O)CCCC=C(c1cc(Cl)c(OC)c(C(=O)OC)c1)c1cc(Cl)c(OC)c(C(=O)OC)c1
6.10

Which pIC50 is reported for this molecule? COC(=O)CCCC=C(c1cc(Br)c(OC)c(C(=O)OC)c1)c1cc(Br)c(OC)c(C(=O)OC)c1
6.52
